ASSAYED TARGET: HEK-293 cells stably expressing the subunit α5 of the human GABAA receptor, and also the subunits beta2 (short) and gamma2 (long) (Homo sapiens (Human), UniProt P31644)
Sequence (P31644 32-462): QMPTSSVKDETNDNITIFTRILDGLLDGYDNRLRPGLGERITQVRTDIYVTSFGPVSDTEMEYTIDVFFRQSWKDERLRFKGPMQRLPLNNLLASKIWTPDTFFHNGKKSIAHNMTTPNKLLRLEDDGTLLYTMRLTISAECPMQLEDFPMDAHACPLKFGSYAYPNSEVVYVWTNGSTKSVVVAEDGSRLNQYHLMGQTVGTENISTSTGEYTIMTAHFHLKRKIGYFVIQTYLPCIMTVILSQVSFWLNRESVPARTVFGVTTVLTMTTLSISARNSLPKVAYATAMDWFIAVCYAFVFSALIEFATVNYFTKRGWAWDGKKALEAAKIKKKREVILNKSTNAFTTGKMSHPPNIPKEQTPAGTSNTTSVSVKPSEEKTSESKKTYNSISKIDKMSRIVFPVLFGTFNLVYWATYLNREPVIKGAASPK
Sequence (P47870 25-512 partner): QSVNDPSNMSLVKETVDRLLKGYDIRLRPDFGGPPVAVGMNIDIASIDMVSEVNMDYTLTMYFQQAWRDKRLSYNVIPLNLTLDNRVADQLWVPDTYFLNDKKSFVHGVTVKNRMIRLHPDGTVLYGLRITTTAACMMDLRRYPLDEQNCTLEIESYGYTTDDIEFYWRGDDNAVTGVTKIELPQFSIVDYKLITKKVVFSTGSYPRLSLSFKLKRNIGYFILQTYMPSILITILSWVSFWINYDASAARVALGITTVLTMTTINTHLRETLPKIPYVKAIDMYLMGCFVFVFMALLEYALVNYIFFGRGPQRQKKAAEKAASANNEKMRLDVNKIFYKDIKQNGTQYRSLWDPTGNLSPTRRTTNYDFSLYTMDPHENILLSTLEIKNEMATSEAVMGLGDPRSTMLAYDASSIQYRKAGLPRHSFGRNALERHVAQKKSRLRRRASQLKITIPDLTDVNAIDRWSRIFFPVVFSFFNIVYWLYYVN
Sequence (P18507 40-475 partner): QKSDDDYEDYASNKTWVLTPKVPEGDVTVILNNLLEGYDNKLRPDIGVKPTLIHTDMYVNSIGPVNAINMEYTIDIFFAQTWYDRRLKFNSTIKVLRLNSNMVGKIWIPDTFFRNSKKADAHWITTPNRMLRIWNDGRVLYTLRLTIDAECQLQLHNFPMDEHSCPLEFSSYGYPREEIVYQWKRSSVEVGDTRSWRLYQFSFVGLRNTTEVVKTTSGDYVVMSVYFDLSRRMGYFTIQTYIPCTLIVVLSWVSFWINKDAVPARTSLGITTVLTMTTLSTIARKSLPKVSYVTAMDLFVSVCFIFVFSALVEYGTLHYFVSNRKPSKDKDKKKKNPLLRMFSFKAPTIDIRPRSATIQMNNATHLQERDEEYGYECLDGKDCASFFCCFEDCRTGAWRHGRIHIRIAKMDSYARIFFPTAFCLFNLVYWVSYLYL
EXPERIMENT SUMMARY: GABAA receptor activity study (membrane potential, FMP marker, FlexStation3)
MEASUREMENT SETUP: 40 min preincubation, then GABA, read-out: alpha5 IC50
ASSAY METRIC: pIC50
Answers are plain numbers, as −log10 of the molar value.

Here's what some known entries look like.
| SUBSTANCE SMILES | pIC50 |
| --- | --- |
| CC1=NN=C(c2cc3ccccc3s2)c2cc3oc(=O)[nH]c3cc2C1 | 6.89 |
| CC1=NN=C(c2cc3c(F)cccc3s2)c2cc3oc(=O)[nH]c3cc2C1 | 6.70 |
| CC1=NN=C(c2cc3ccc(F)cc3s2)c2cc3oc(=O)[nH]c3cc2C1 | 7.00 |

Would you be so kind as to report pIC50 for each listed record?
1. CC1=NN=C(c2cc3c(C(F)(F)F)cccc3s2)c2cc3oc(=O)[nH]c3cc2C1
2. CC1=NN=C(c2sc3cccc(C(F)(F)F)c3c2Cl)c2cc3oc(=O)[nH]c3cc2C1

6.30
6.60
